Origin of values: patent US12655142B2

Molecular target: c-Kit(V654A) (Homo sapiens, UniProt P10721, V654A)
Construct: recombinant human c-Kit, amino acids 544-end containing the V654A mutation; GST (N)
Sequence (P10721 544-976 V654A): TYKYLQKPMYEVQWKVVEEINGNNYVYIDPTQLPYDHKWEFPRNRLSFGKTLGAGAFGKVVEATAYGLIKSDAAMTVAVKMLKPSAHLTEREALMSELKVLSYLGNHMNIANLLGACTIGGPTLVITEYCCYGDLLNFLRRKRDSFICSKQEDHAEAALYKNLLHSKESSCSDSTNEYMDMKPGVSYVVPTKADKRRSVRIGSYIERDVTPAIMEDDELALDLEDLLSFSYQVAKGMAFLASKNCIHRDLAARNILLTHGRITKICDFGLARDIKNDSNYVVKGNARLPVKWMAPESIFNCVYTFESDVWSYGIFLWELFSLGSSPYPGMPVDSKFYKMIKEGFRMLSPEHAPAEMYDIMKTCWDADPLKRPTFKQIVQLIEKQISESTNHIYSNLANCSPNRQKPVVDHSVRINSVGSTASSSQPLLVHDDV
Test: c-Kit(V654A) assay (33P-ATP filter binding kinase assay)
Settings: recombinant human c-Kit aa 544-end V654A, ATP 200 μM
Lab note: anything with IC50 below 5 nM is marked T; values at 5 nM or higher are marked F.

{"compound": "Cn1cc(-c2ccc(CNc3cc(-c4cnc5cc(OCCN6CCN7CCOCC7C6)ccn45)ncn3)cc2)cn1 (centres unmarked)", "classification": "F"}
{"compound": "Cn1cc(-c2ccc(CNc3cc(-c4cnc5cc(CCN6CCCC6)ccn45)ncn3)cc2)cn1", "classification": "F"}
{"compound": "COc1ccn2c(-c3cc(NCc4ccc(-c5nccc(OC)n5)cc4)ncn3)cnc2c1", "classification": "F"}
{"compound": "Cn1ncc(-c2ccc(CNc3cc(-c4cnc5cc(OCCC6CCNC6)ccn45)ncn3)cc2)n1 (centres unmarked)", "classification": "T"}
